Test system: chloroquine-resistant W2 strain of P. falciparum
Test: In vitro antiplasmodial assay, (G-3H) hypoxanthine incorporation, W2 strain
Assay type: cell-based
Conditions: Plasmodium falciparum, pure compounds
MEASUREMENT_LABEL: IC50 (µM)

MOLECULE	MEASUREMENT_LABEL	RECORDED_MEASUREMENT
CC1(C)CC[C@]2(C(=O)O)CC[C@]3(C)C(=CC[C@@H]4[C@@]5(C)CC[C@H](O)C(C)(C)[C@@H]5CC[C@]43C)[C@@H]2C1	IC50	82.7

I: CC(=CCCC=C(C)CCC=C(C)CCC(O)C(C)(C)O)CCC=C(C)CCC(O)C(C)(C)O (stereo not drawn)
II: O=c1c(O[C@@H]2O[C@H](CO)[C@@H](O)[C@H](O)[C@H]2O)c(-c2ccc(O)c(O)c2)oc2cc(O)cc(O)c12 [Compound 10, quercetin-3-O-β-D-glucopyranoside]
Exercise: Which entry shows the lesser value of IC50 here, I or II ? Which one? Tell me its label.
Key: I
